assay: determination of lipophilicity by HPLC (log k); conditions: HPLC capacity factor, C18 column, MeOH 70% / H2O 30%
QUANTITY_MEASURED: log k

Worked examples follow.
CCCNc1nccnc1C(=O)NCC    0.382
CCCCCNC(=O)c1nccnc1Cl [Compound 5, 3-Chloro-N-pentylpyrazine-2-carboxamide]    0.012

For the compound shown here, CCCCCCCCNC(=O)c1nccnc1NCCCCCCCC , give the reported log k. 2.981

For the compound shown here, CCNC(=O)c1nccnc1NCC , give the reported log k. 0.163

For the compound shown here, CCCCCCCNc1nccnc1C(=O)NCC , give the reported log k. 1.337

For the compound shown here, CCCCCCNC(=O)c1nccnc1NCCCCCC , give the reported log k. 2.041

For the compound shown here, CCCCCCCCNC(=O)c1nccnc1Cl [Compound 8, 3-Chloro-N-octylpyrazine-2-carboxamide] , give the reported log k. 0.702

For the compound shown here, CCNC(=O)c1nccnc1Cl [Compound 2, 3-Chloro-N-ethylpyrazine-2-carboxamide] , give the reported log k. −0.591

* * *

Tested on: photosystem 2 photosynthetic electron transport (PET) in spinach chloroplasts
Experiment: inhibition of photosynthetic electron transport (PET) in spinach chloroplasts (Hill reaction, DCPIP)
Type: biochemical, Spinacia oleracea L.
Conditions: spinach chloroplasts
Method: Chloroplasts were prepared from spinach (Spinacia oleracea L.) according to Masarovicova and Kralova. The inhibition of photosynthetic electron transport (PET) in spinach chloroplasts was determined spectrophotometrically (Genesys 6, Thermo Electron Scientific Instruments, Madison, WI, USA), using an artificial electron acceptor 2,6-dichlorophenol-indophenol (DCPIP) according to Kralova et al., and the rate of photosynthetic electron transport (PET) was monitored as a photoreduction of DCPIP. […]
QUANTITY_MEASURED: PET-inhibiting activity (in words)

Worked examples follow.
CCCNC(=O)c1nccnc1Cl [Compound 3, 3-Chloro-N-propylpyrazine-2-carboxamide]    inactive
CCNC(=O)c1nccnc1Cl [Compound 2, 3-Chloro-N-ethylpyrazine-2-carboxamide]    inactive
CCNC(=O)c1nccnc1NC    not active
CNC(=O)c1nccnc1Cl [Compound 1, 3-Chloro-N-methylpyrazine-2-carboxamide]    inactive

// below: PET-inhibiting activity (in words) requested for another compound
For the compound shown here, CCNC(=O)c1nccnc1NCC , give the reported PET-inhibiting activity (in words). not active

* * *

experiment: determination of lipophilicity by HPLC (log k); details: HPLC capacity factor, C18 column, MeOH 70% / H2O 30%
Note that class boundaries on log k are lo = under -0.05, med = from -0.05 up to 0.6, hi = 0.6 and over

Worked examples, 5 molecules total:
CCNC(=O)c1nccnc1NC    lo
CCCCNC(=O)c1nccnc1NCCCC    hi
CCCNc1nccnc1C(=O)NC    med
CCCCCNc1nccnc1C(=O)NC    hi
CCCCCNc1nccnc1C(=O)NCC    hi

Please indicate the class for CCCCCCCNc1nccnc1C(=O)NC based on its log k. hi

Please indicate the class for CCCCCCNC(=O)c1nccnc1Cl [Compound 6, 3-Chloro-N-hexylpyrazine-2-carboxamide] based on its log k. med

Please indicate the class for CNC(=O)c1nccnc1NC based on its log k. lo

Please indicate the class for CNC(=O)c1nccnc1Cl [Compound 1, 3-Chloro-N-methylpyrazine-2-carboxamide] based on its log k. lo

Please indicate the class for CCNc1nccnc1C(=O)NC based on its log k. lo

* * *

tested on: photosystem 2 photosynthetic electron transport (PET) in spinach chloroplasts; test: inhibition of photosynthetic electron transport (PET) in spinach chloroplasts (Hill reaction, DCPIP); assay type: biochemical, Spinacia oleracea L.; settings: spinach chloroplasts; read-out: IC50 (PET inhibition, Hill reaction)
QUANTITY_MEASURED: IC50

For the molecule shown here, CN(C)C(=O)Nc1ccc(Cl)c(Cl)c1 [DCMU, 3-(3,4-dichlorophenyl)-1,1-dimethylurea, reference compound] , give the reported IC50. ~1.9 µM

* * *

assay: determination of lipophilicity by HPLC (log k); settings: HPLC capacity factor, C18 column, MeOH 70% / H2O 30%
Lab note: compare log k against 0.9. Equal or greater, write TRUE. Smaller, write FALSE.

Worked examples, 2 compounds total:
CCCNC(=O)c1nccnc1NCCC    FALSE
CCCCCNC(=O)c1nccnc1NCCCCC    TRUE

Please indicate if the recorded log k for CCCCCCNc1nccnc1C(=O)NCC meets or exceeds 0.9. TRUE

Please indicate if the recorded log k for CCCCCCCNC(=O)c1nccnc1NCCCCCCC meets or exceeds 0.9. TRUE

Please indicate if the recorded log k for CCCCCCCCNc1nccnc1C(=O)NC meets or exceeds 0.9. TRUE

Please indicate if the recorded log k for CCCCNc1nccnc1C(=O)NC meets or exceeds 0.9. FALSE

Please indicate if the recorded log k for CCCCCCCNC(=O)c1nccnc1Cl [Compound 7, 3-Chloro-N-heptylpyrazine-2-carboxamide] meets or exceeds 0.9. FALSE

Please indicate if the recorded log k for CCCNC(=O)c1nccnc1Cl [Compound 3, 3-Chloro-N-propylpyrazine-2-carboxamide] meets or exceeds 0.9. FALSE

Please indicate if the recorded log k for CCCCNC(=O)c1nccnc1Cl [Compound 4, N-Butyl-3-chloropyrazine-2-carboxamide] meets or exceeds 0.9. FALSE

Data provenance: paper PMC6272192
